- Test system: DU-4475
- procedure summary: drug sensitivity score (DSS), CellTiter-Blue viability (DSS (AUC-based score)); higher = stronger viability inhibition; extreme values may be limits of the assay
- settings: incubation time: 72 h
Assignment: determine reported drug sensitivity score for the given molecules.
Numbers only.

Give drug sensitivity score for each of the items listed below.
1. CO[C@@H](C(=O)N1Cc2[nH]nc(NC(=O)c3ccc(N4CCN(C)CC4)cc3)c2C1)c1ccccc1
2. Nc1cccc2c1CN(C1CCC(=O)NC1=O)C2=O (centres undefined) [Lenalidomide]
3. Cc1nc(Nc2ncc(C(=O)Nc3c(C)cccc3Cl)s2)cc(N2CCN(CCO)CC2)n1

output:
[14.2, 0, 0]

input: Form entry - test system: DU-4475; read-out: drug sensitivity score; molecule: CC[C@@]1(O)C(=O)OCc2c1cc1n(c2=O)Cc2cc3c(CN(C)C)c(O)ccc3nc2-1
output: 11.1
